Tested on: A549 NSCLC
Experiment: NCI tumour cell line growth inhibition, 48 h
EXPERIMENTAL_ENDPOINT: TGI

// known answers, use as guide
COMPOUND | RESULT
N#CCCN1C/C(=C/c2ccccc2)C(=O)/C(=C/c2ccccc2)C1 | 16.2 µM
O=C1N=C(c2c(-c3[nH]c(=O)c4ccc(Br)cc4c3O)c(O)c3ccccc3c2O)C(=O)c2cc(Br)ccc21 | > 16.7 µM
O=[N+]([O-])c1ccc(/C(=C\c2ccccc2)Cn2ccnc2)cc1 | > 100 µM
COc1cc(/C=C2\CCC(C)C3=C(c4cc(OC)c(OC)c(OC)c4)C(C#N)=C(N)OC32)cc(OC)c1OC (centres undefined) | > 100 µM
CCOC(=O)/C=C\[C@H]1OC(C)(C)O[C@H]1[C@H](O)[C@H]1COC(C)(C)O1 | > 100 µM
COC(=O)[C@@H](NC1(c2ccccc2)c2ccccc2-c2ccccc21)[C@H](OC(=O)[C@H]1CCCN1S(=O)(=O)c1ccccc1)C(=O)OC | > 100 µM

Consider the compound COc1ccc2[nH]c(C(=O)N3CCN(C(=O)OCc4ccc5c(Br)cc(Br)c(O)c5n4)CC3)cc2c1 . State its measured TGI.
3.59 µM

Consider the compound COc1ccc(COC(=O)NNC(=O)C2CSC(c3ccccc3)N2C(C)=O)cc1 (centres undefined) . State its measured TGI.
> 100 µM

Consider the compound NCCOc1ncccc1/C=C1\C2C=CC=CC2C2C=CC(F)=CC12 (centres undefined) . State its measured TGI.
2.04 µM

###

System: SN12C renal
Test: NCI tumour cell line growth inhibition, 48 h; in the data active means GI50 below about 0.43 µM; inactive means the rest
Lab note: assign the record to one of label 1 = active, label 0 = inactive

Previously resolved entries follow.
MOLECULE | CLASSIFICATION
NCCOc1ncccc1/C=C1\C2C=CC=CC2C2C=CC(F)=CC12 (stereo not drawn) | label 1
COc1ccc(NC(=O)c2sc3nc(C)c(C(=O)/C=C/c4ccccc4)cc3c2N)cc1 | label 0
COc1ccc(OC)c(Nc2nc3ccccc3c3c2-c2ccc(OC)cc2C3=O)c1 | label 0
COC(=O)N1c2ccc3c(nc(Cc4ccccc4)n3[C@H]3CCC[C@H](C(=O)O)C3)c2CC[C@@H]1C | label 0
Nc1ncc2ccc3c(ccn3C3CC(O)C(CO)O3)c2n1 (stereo not drawn) | label 0

Record lookup: outcome of this test for N#Cc1ccccc1C#C/C=C\C#Cc1cccs1 ?
label 0

Record lookup: outcome of this test for O=C(CC1(O)C(=O)N(Cc2ccccc2)c2ccc(Br)cc21)c1ccc(C(=O)NCC2CCC3(CC2)OOC2(CCCCC2)OO3)cc1 (stereo not drawn) ?
label 0

Record lookup: outcome of this test for COc1cc2c3c(n(CCCN(C)C)c(=O)c2cc1OC)-c1cc2c(cc1C3=O)OCO2 ?
label 0

###

Tested on: HS 578T breast
Test: NCI tumour cell line growth inhibition, 48 h
A collection of molecules and their measured TGI

// known answers, use as guide
MOLECULE | RESULT
COc1cccc(C2SCC(=O)N2c2ccc(-c3ccc(-n4c(-c5ccccc5)nc5ccccc5c4=O)cc3)cc2)c1OC (stereo not given) | > 100 µM
CCOC(=O)C(C(N)=O)c1nc2cc([N+](=O)[O-])ccc2nc1/C=C(\O)c1ccccc1 (stereo not given) | 51.2 µM
N#Cc1cc(-c2nc3cc(F)ccc3s2)ccc1N | > 100 µM
C=CCCC(CCC=C)(C(=O)O)C(=O)O | > 100 µM

Consider the molecule CC(C)(C)OC(=O)CCC1NC(=O)[C@@H]2Cc3c([nH]c4ccccc34)C(C3CCCCC3)N2C1=O (stereo not given in full) . State its measured TGI.
> 100 µM

###

System: HOP-92 NSCLC
Assay: NCI tumour cell line growth inhibition, 48 h
EXPERIMENTAL_ENDPOINT: TGI (µM)
The reply should contain only the number, in µM.

// known answers, use as guide
COMPOUND | EXPERIMENTAL_ENDPOINT | NUMERIC_RESULT
CSC1C=C(C(C)C)CCC1(C)SC (stereo unspecified) | TGI | 31.2
COC(=O)c1ccc([C@H]2c3[nH]c4ccccc4c3C[C@H](C(=O)OC)N2C(=O)CCl)cc1 | TGI | 0.063
COC(=O)N1c2ccc3c(nc(Cc4ccccc4)n3[C@H]3CCC[C@H](C(=O)O)C3)c2CC[C@@H]1C | TGI | 11.8
COC(=O)c1c(C(=O)OC)c2ccc(-c3ccc(Cl)cc3)nn2c1C(=O)c1ccc([N+](=O)[O-])cc1 | TGI | 39.5
Cc1cc(=O)[nH]c(NN2C(Cl)C(=O)C2c2ccc(O)cc2)n1 (stereo unspecified) | TGI | 29.4

Turning now to a further record.
Consider the compound N#Cc1cc(-c2nc3cc(F)ccc3s2)ccc1N . State its measured TGI.
29.6

###

Test system: CCRF-CEM leukemia
Assay: NCI tumour cell line growth inhibition, 48 h; in the data active = GI50 below about 0.43 µM; inactive = the rest
Lab note: assign the record to one of YES = active, NO = inactive

Previously resolved entries follow.
COMPOUND | CLASSIFICATION
c1cc2ccc3cc2cc1CNCCN1CCNCc2ccc4ccc(cc4c2)CNCCN(CCNC3)CCNCc2ccc3ccc(cc3c2)CNCC1 | NO
COc1cc2c3c(n(CCCNCCCNCCCn4c5c(c6cc(OC)c(OC)cc6c4=O)C(=O)c4ccccc4-5)c(=O)c2cc1OC)-c1ccccc1C3=O | NO
C[C@@H]1CCC2[C@@H](C)[C@@H](OC3CCC(O)CC3)OC3O[C@@]4(C)CCC1[C@]32OO4 (some centres undefined) | NO
O=C(CC1(O)C(=O)N(Cc2ccccc2)c2ccc(Br)cc21)c1ccc(C(=O)NCC2CCC3(CC2)OOC2(CCCCC2)OO3)cc1 (centres undefined) | YES
COc1ccc2[nH]c(C(=O)N3CCN(C(=O)OCc4ccc5c(Br)cc(Br)c(O)c5n4)CC3)cc2c1 | YES

Record lookup: outcome of this test for O=C1N=C(c2c(-c3[nH]c(=O)c4ccc(Br)cc4c3O)c(O)c3ccccc3c2O)C(=O)c2cc(Br)ccc21 ?
NO

Record lookup: outcome of this test for CCCCCCCCCCCCCCNc1nc(C(=O)OCC)ncc1-c1ccc(C(F)(F)F)cc1 ?
NO

Record lookup: outcome of this test for Clc1ccc(CN2COc3c(ccc4cccnc34)C2)cc1Cl ?
NO

###

System: EKVX NSCLC
Assay: NCI tumour cell line growth inhibition, 48 h
EXPERIMENTAL_ENDPOINT: GI50

// known answers, use as guide
COMPOUND | GI50
O=c1c2c3c(sc2n2c(CCl)nnc2n1Cc1ccccc1)CCCC3 | 7.96 µM
COc1ccc(OC)c(Nc2nc3ccccc3c3c2-c2ccc(OC)cc2C3=O)c1 | > 100 µM

Turning now to a further record.
Consider the compound Clc1ccc(CN2COc3c(ccc4cccnc34)C2)cc1Cl . State its measured GI50.
1.31 µM

###

Tested on: RPMI-8226 leukemia
Experiment: NCI tumour cell line growth inhibition, 48 h
A collection of compounds and their measured TGI
The reply should contain only the number, in µM.

// known answers, use as guide
COMPOUND_STRUCTURE | STUDY_TARGET | READOUT_UNIT | TGI
COc1ccc(-c2nc3cc(F)ccc3s2)cc1O | RPMI-8226 leukemia | µM | 77.1
COC(=O)c1ccc([C@H]2c3[nH]c4ccccc4c3C[C@H](C(=O)OC)N2C(=O)CCl)cc1 | RPMI-8226 leukemia | µM | 0.386

Turning now to a further record.
Consider the compound CCN(CCCl)CCCCNc1c2ccccc2nc2ccc(OC)cc12 . State its measured TGI.
4.08

###

A collection of compounds and their measured TGI
Tested on: LOX IMVI melanoma
Assay: NCI tumour cell line growth inhibition, 48 h
The reply should contain only the number, in µM.

// known answers, use as guide
COMPOUND_STRUCTURE | STUDY_TARGET | NUMERIC_RESULT
CCC(=O)Oc1cc(/C=C/C(=O)O[C@H]2C[C@H]3CN4CCc5c([nH]c6cc(OC)ccc56)[C@@H]4C[C@@H]3[C@@H](C(=O)OC)[C@@H]2OC)ccc1OC | LOX IMVI melanoma | 55.1
O=C(Nc1ccc(-n2ccc3c(NC(=O)c4ccccc4)nccc32)cc1)c1cccc(C(F)(F)F)c1 | LOX IMVI melanoma | 5.4

Turning now to a further record.
Consider the compound O=c1c2c3c(sc2n2c(CCl)nnc2n1Cc1ccccc1)CCCC3 . State its measured TGI.
1.32

###

A collection of molecules and their measured TGI
System: MDA-MB-231 breast
Test: NCI tumour cell line growth inhibition, 48 h
The reply should contain only the number, in µM.

MOLECULE | TGI [µM]
C=C1C2CC[C@@](C)(O)C2[C@H]2OC(=O)C(=C)[C@@H]2C[C@H]1O (stereo partly specified) | 80.1

Consider the molecule O=c1c2sc3ccccc3c2nnn1-c1ccc(F)c(Cl)c1 . State its measured TGI.
26.1

Consider the molecule CC(C)(C)OC(=O)CCC1NC(=O)[C@@H]2Cc3c([nH]c4ccccc34)C(C3CCCCC3)N2C1=O (stereo partly specified) . State its measured TGI.
76.6
